Biological target: 5-HT reuptake sites (Rattus norvegicus)
Construct: Frontal cortical tissue from the brains of male Charles River rats
Sequence (P31652 whole entry): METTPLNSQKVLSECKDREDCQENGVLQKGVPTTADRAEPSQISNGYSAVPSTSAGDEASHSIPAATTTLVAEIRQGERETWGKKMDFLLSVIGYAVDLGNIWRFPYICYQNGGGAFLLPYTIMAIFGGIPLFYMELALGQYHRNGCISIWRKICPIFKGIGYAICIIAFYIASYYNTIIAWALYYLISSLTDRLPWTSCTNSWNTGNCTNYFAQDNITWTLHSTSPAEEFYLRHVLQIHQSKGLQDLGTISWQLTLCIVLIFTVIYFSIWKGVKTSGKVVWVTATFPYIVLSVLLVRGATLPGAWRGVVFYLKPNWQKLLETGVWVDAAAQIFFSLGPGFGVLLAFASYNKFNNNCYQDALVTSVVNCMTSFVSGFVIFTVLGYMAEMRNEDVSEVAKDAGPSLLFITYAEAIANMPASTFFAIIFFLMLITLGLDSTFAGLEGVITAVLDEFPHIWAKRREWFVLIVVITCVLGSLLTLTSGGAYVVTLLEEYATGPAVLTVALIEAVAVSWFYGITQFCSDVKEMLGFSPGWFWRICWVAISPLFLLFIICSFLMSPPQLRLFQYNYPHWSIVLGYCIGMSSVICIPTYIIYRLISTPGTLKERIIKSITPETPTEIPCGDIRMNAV
Test: 5-HT uptake: displacement of [3H]citalopram from 5-HT reuptake sites, rat frontal cortical membranes
Conditions: [3H]citalopram 1.3 nM, rat frontal cortical membranes; fit to data from three experiments
readout.name: log10 Ki (log10 of the value in nM)
Lab note - Ki converted to log10 from values in nM.

Data request: Form field: log10 Ki recorded for CC1=C(c2cccc3sccc23)N2CCN=C2S1.Cl [Example 9, hydrochloride] with 5-HT reuptake sites (Rattus norvegicus) (enter value)
Data returned: 2.59

Data request: Requested read-out log10 Ki, target or system 5-HT reuptake sites (Rattus norvegicus), entry OCC1=C(c2cc3c(Cl)cccc3s2)N2CCN=C2S1 [Example 4]
Data returned: 1.56

Data request: Lab note: need log10 Ki with 5-HT reuptake sites (Rattus norvegicus) for entry OCC1=C(c2cccc3sccc23)N2CCN=C2S1 [Example 3] , please look it up.
Data returned: 2.24

Data request: Given the entry C1=C(c2cccc3sccc23)N2CCN=C2S1.Cl [Example 2, hydrochloride] , what log10 Ki was observed with 5-HT reuptake sites (Rattus norvegicus)?
Data returned: 1.65

Data request: Missing value: log10 Ki, 5-HT reuptake sites (Rattus norvegicus), entry CC(C)C1=C(c2ccc3sccc3c2)N2CCN=C2S1 [Example 29] . Fill in?
Data returned: 0.61

Data request: Lab note: need log10 Ki for CCC1=C(c2cccc3sccc23)N2CCN=C2S1.O=C(O)/C=C/C(=O)O [Example 25, fumarate] on 5-HT reuptake sites (Rattus norvegicus), anyone have it?
Data returned: 2.23

Data request: Observed log10 Ki on 5-HT reuptake sites (Rattus norvegicus) for Br.CC1=C(c2cc3ccccc3s2)N2CCN=C2S1 [Example 6, hydrobromide] , please.
Data returned: 1.65

Data request: Notebook: pull reported log10 Ki for 5-HT reuptake sites (Rattus norvegicus), entry CC1=C(c2cccc3ccsc23)N2CCN=C2S1.Cl [Example 23, hydrochloride]
Data returned: 2.36

Data request: Field: log10 Ki (5-HT reuptake sites (Rattus norvegicus)). Entry: Br.CC1=C(c2cccc3sccc23)N2CCN=C2S1 [Example 8, hydrobromide]
Data returned: 2.44

Data request: Record lookup: for 5-HT reuptake sites (Rattus norvegicus), what log10 Ki belongs to Br.CC1=C(c2ccc3ccsc3c2)N2CCN=C2S1 [Example 37, hydrobromide] ?
Data returned: 2.33

Data request: What is its log10 Ki for 5-HT reuptake sites (Rattus norvegicus)? Entry: CC(C)C1=C(c2cccc3sccc23)N2CCN=C2S1.O=C(O)/C=C/C(=O)O [Example 35, fumarate]
Data returned: 1.92

Data request: Value wanted: log10 Ki (5-HT reuptake sites (Rattus norvegicus)) of entry Br.C=CCC1=C(c2cccc3sccc23)N2CCN=C2S1 [Example 36, hydrobromide]
Data returned: 1.95

Data request: Item Br.CC1=C(c2ccc(F)c3sccc23)N2CCN=C2S1 [Example 38, hydrobromide] with 5-HT reuptake sites (Rattus norvegicus) - log10 Ki?
Data returned: 1.79

Data request: Give log10 Ki (5-HT reuptake sites (Rattus norvegicus)) of the following compound: Br.CC1=C(c2ccc3sccc3c2)N2CCN=C2S1 [Example 21, hydrobromide]
Data returned: 1.96

Data request: Recorded log10 Ki for CSC1=C(c2cccc3sccc23)N2CCN=C2S1.O=C(O)/C=C/C(=O)O [Example 32, fumarate] with 5-HT reuptake sites (Rattus norvegicus), please?
Data returned: 2.35
